test.system: T1, human SLITRK6 on cells (human, UniProt Q9H5Y7 27-841)
T1 construct: whole, on cells
assay.notes: flow cytometry on RT4 cells
outcome.measure: EC50 (nM)
Answers are plain numbers, in nM.

Solved cases (4 shown):
Sirtratumab (antibody, V domains shown, Prior-art benchmark antibody; also called Sirtratuzumab) VH: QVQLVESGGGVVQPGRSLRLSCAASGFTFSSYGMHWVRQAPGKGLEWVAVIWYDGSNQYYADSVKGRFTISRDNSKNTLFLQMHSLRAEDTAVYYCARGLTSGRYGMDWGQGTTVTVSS VL: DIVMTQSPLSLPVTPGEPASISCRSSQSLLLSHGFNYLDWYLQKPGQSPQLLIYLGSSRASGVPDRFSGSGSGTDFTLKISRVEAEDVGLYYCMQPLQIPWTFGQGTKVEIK    0.26
phA108 (antibody, V domains shown, From phage display, then full-length construction; Only the variable regions are tied to the name) VH: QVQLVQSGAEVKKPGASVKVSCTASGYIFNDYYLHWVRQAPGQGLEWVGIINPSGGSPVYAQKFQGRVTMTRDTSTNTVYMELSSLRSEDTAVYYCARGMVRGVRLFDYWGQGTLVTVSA VL: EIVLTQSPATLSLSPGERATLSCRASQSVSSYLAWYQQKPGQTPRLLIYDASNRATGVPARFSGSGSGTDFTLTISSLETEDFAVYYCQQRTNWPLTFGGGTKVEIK    0.12
Sirtratumab-LD038 (8) (antibody, V domains shown, drug-linker LD038 on cysteines freed by TCEP reduction, DAR 8.0; positions not given, also called Sirtratumab ADC) VH: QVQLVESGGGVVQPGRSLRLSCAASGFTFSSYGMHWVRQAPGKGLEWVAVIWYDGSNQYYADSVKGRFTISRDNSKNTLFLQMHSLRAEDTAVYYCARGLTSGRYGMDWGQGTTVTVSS VL: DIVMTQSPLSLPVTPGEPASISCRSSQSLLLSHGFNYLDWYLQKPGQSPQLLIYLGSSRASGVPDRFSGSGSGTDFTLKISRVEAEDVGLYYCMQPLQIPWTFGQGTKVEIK    0.31
hu1H2-13 (antibody, V domains shown) VH: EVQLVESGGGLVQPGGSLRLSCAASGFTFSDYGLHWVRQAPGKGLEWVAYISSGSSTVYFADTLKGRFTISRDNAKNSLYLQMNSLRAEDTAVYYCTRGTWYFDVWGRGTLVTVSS VL: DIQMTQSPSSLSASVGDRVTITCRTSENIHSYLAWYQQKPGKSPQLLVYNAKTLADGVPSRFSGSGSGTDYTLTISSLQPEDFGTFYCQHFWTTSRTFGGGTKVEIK    0.27

For the next question, use this binder.
Input hu1H2-13-LD038 (8) (antibody, V domains shown, drug-linker LD038 on cysteines freed by TCEP reduction, DAR 8.0; positions not given, also called hu1H2-13 ADC) VH: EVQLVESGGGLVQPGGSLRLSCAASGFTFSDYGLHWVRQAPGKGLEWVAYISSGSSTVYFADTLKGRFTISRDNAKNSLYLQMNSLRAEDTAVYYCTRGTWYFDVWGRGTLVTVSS VL: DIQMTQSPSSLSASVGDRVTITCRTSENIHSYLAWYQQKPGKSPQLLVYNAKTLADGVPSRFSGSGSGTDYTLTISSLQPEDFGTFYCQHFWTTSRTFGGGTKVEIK . Output EC50: 0.38
